Catalogue of molecules with associated pIC50
Test system: MRC-5 fibroblasts
experiment: Cytotoxicity (Neutral Red), MRC-5 fibroblasts
Format: cell-based, human
assay setup: Homo sapiens, MRC5, 24 h, read-out: IC50 MRC-5
pIC50: −log10 of the molar value.
reported property: pIC50

>>> experimental_value("C=CCSSCC=C [Diallyl disulfide, diallyl disulfide]")
3.57
>>> experimental_value("O=c1c(O)c(-c2ccc(O)c(O)c2)oc2cc(O)cc(O)c12")
3.95

----------
Tested on: MRC-5 fibroblasts
experiment: Cytotoxicity (Neutral Red), MRC-5 fibroblasts
Assay type: cell-based, human
assay setup: Homo sapiens, MRC5; 24 h exposure, Neutral Red; read-out: IC50 MRC-5
IC50 listing for selected compounds.
reported property: IC50 (µM)

>>> experimental_value("C=CCSCC=C [Allyl sulfide]")
163
>>> experimental_value("C=CCS[S+]([O-])CC=C (stereo not shown) [Allicin]")
120
>>> experimental_value("O=C(O)c1cc(O)c(O)c(O)c1 [Gallic acid, gallic acid]")
243
>>> experimental_value("C=CCSCC(N)C(=O)O (stereo in doubt) [S-Allyl-D-cysteine]")
578
